Provide the reported pIC50 of each item.
- Measured target: T1, human angiopoietin-2 protein (human, UniProt O15123 19-496)
- T1 construct: bought; also called Ang-2; Ang2
- T1 sequence (looked up): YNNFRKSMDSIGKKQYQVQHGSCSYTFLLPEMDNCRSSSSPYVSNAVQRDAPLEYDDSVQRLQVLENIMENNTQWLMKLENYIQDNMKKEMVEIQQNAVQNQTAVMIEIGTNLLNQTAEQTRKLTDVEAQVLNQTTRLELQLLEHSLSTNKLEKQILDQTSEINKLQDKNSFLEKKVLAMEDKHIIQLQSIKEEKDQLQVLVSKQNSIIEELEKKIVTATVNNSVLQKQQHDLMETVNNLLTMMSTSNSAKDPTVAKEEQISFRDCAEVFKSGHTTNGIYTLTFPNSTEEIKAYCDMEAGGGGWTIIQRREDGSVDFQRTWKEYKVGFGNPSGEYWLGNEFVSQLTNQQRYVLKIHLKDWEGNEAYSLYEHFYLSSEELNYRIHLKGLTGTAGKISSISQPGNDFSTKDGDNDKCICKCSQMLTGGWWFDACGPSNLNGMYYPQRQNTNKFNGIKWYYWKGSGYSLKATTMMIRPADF
- Assay protocol: competition ELISA, coated Ang-2, competitor compound 43-0P-h38c2 10 ng/mL; T form
0P linker = not defined here
One number for each entry, as −log10 of the molar value.

[[record]]
binder = "Ac-QK(Ac)YQPLDEK(Ac)DK(0P linker)TLYDQFM-NH2 (reading uncertain, C-terminal truncation of 43(a) by 4 residues) [Compound 86 (T): targeting peptide plus 0P linker]"
result_value = 6.07


Each binder below has a recorded value; state its pIC50.
1. Ac-QK(Ac)YQPLDEK(Ac)DK(0P linker)TLYDQFMLQQ-NH2 (reading uncertain, C-terminal truncation of 43(a) by 1 residue) [Compound 83 (T): targeting peptide plus 0P linker]
2. Ac-QK(Ac)YQPLDEK(Ac)DK(0P linker)TLYDQFMLQ-NH2 (reading uncertain, C-terminal truncation of 43(a) by 2 residues) [Compound 84 (T): targeting peptide plus 0P linker]

1: 6.95; 2: 6.72

Look up pIC50 for the entries below, preserving their order.
1. QXYQPLDEXDXTLYDQFMLQQG (N-term ac; C-term am; AcK at 2; AcK at 9; 0P linker on K11) [Compound 43(a) (T): targeting peptide plus 0P linker]
2. Ac-QK(Ac)YQPLDEK(Ac)DK(0P linker)TLYDQFML-NH2 (reading uncertain, C-terminal truncation of 43(a) by 3 residues) [Compound 85 (T): targeting peptide plus 0P linker]

1. 6.86
2. 6.35
